Catalogue of pEC50 readings, one per entry.
Target: T1, human αvβ1 integrin on CHOK1 stable cells (human, UniProt P06756 31-1048; P05556 21-798)
T1 construct: whole, on cells; Stably expressed on CHOK1 cells; also called hαvβ1; CHOK1-human αvβ1
Assay: cell-based ELISA (CELISA), CHOK1 cells expressing the integrin
From the text: Integrin cell-based ELISA (CELISA) assay. Cell binding EC₅₀ data for antibodies were obtained for CHOK1 parental cells and CHOK1 cells expressing human or mouse αvβ1, αvβ6, and αvβ1 integrins by cell-based ELISA. […] Absorbance was read on a TECAN plate reader at 450 nm, with a 620 nm reference wavelength.
pEC50: −log10 of the molar value.
reported-metric: pEC50

binder	reported-metric	numeric-result
Ab-33 (antibody, V domains shown) VH: EVQLVQSGAEVKKPGSSVKVSCKASGGTFSNYAISWVRQAPGQGLEWMGGIIPIFGTANYAQKFQGRVTITADESTSTAYMELSSLRSEDTAVYYCARAPRSARGDMYYYYYGMDVWGQGTTVTVSS VL: DIQMTQSPSTLSASVGDRVTITCRASQSIGSWLAWYQQKPGKAPKLLIYKASSLESGVPSRFSGSGSGTEFTLTISSLQPDDFATYYCQQYGRYPWTFGGGTKVEIK	pEC50	9.15
Ab-30 (antibody, V domains shown) VH: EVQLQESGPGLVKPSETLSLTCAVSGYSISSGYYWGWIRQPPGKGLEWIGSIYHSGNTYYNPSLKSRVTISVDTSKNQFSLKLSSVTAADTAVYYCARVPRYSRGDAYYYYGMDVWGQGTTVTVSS VL: DIQMTQSPSTLSASVGDRVTITCRASQSISSWLAWYQQKPGKAPKLLIYKASSLESGVPSRFSGSGSGTEFTLTISSLQPDDFATYYCQQVKIYPPYTFGGGTKVEIK	pEC50	9.64
Ab-29 (antibody, V domains shown) VH: ELQLQESGPGLVKPSETLSLTCTVSGGSISSNSYYWGWIRQPPGKGLEWIGSIYYSGSTYYNPSLKSRVTISVDTSKNQFSLKLSSVTAADTAVYYCARVRRVAGRGDSYYYYYGMDVWGQGTTVTVSS VL: DIQMTQSPSSVSASVGDRVTITCRASQGISRWLAWYQQKPGKAPKLLIYAASSLQSGVPSRFSGSGSGTDFTLTISSLQPEDFATYYCQQAISHPWTFGGGTKVEIK	pEC50	9.70
Ab-31 (antibody, V domains shown) VH: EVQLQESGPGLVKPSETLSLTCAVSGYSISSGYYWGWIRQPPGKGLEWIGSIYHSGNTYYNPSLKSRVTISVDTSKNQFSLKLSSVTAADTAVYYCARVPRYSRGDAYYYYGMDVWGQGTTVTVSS VL: DIQMTQSPSTLSASVGDRVTITCRASQSIGSWLAWYQQKPGKAPKLLIYKASSLESGVPSRFSGSGSGTEFTLTISSLQPDDFATYYCQQSGPYPWTFGGGTKVEIK	pEC50	9.49
